- Tested on: MDA-MB-231 breast
- PROTOCOL_NOTES: NCI-60 one-dose screen, 48 h
- RUN_CONDITIONS: 10 µM unless noted
About 83,000 compounds went through this panel and 20% of them were active in at least one assay; those are over-represented in the sample as a whole. Calls of active or inactive are those of the source. The calls were made as follows: active = growth percent below 10; inactive = the rest.
Allowed answers: active, inactive

Enquiry: Field: outcome | Entry: N#Cc1c(-c2ccc(F)cc2)nc(N=Nc2c(O)[nH]c3ccc(Cl)cc23)nc1N1CCOCC1
Return: inactive

Enquiry: Hi team, can someone confirm the assay call for NS(=O)(=O)c1ccc(-n2ncc(NC(=O)Nc3ccc(S(=O)(=O)Nc4nccs4)cc3)c2-c2ccccc2)cc1 ?
Return: inactive

Enquiry: For this compound, state the assay outcome: C=C(C)[C@@H]1CC[C@]2(C(=O)NCCCO)CC[C@]3(C)[C@H](CC[C@@H]4[C@@]5(C)CCCNC(C)(C)[C@@H]5CC[C@]43C)[C@@H]12
Return: inactive

Enquiry: Dear colleague, could you share the recorded outcome for COc1cc(-c2csc(NC(=O)Nc3cc(Cl)cc(Cl)c3)n2)cc(OC)c1OC when you have a moment?
Return: active

Enquiry: In this assay, the call recorded for COc1ccc2[nH]c(=O)c(/C=C/C(=O)/C=C/c3ccc(O)c(OC)c3)cc2c1 was what?
Return: inactive

Enquiry: // outcome(item) with item = COc1ccc2c(c1)C1(C(=O)N2)C(C#N)=C(c2ccccc2)Nc2c1c(-c1ccccc1)nn2-c1ccccc1 (centres undefined)
Return: inactive

Enquiry: Recorded test call requested for NS(=O)(=O)c1ccc(C2C3=C(CCCC3=O)OC3=C2C(=O)c2ccccc2C3=O)cc1 (centres undefined)
Return: active

Enquiry: So what was the verdict on CCCn1c(N)c(C(N)=O)sc1=S in this test?
Return: inactive

Enquiry: Please share the test call associated with CCCCOc1nc2ccc(C)cc2cc1/C=C/C(=O)/C=C/c1ccc2c(c1)OCO2 .
Return: inactive

---

- Test system: SNB-75 CNS
- PROTOCOL_NOTES: NCI-60 one-dose screen, 48 h (100 = growth as untreated, 0 = no growth, -100 = all killed)
- RUN_CONDITIONS: 10 µM unless noted
The panel holds about 83,000 compounds, 20% with a hit somewhere; the sample as a whole holds those more often.
Answer each item with its documented growth.
Reply numerically in %, unit not repeated.

Enquiry: Which growth is reported for this molecule? CCSc1nc(Cl)c(C#N)c(-c2ccc(F)cc2)n1
Return: 80.3

Enquiry: // returns reported growth for input CC(=O)[C@@H]1CC[C@]2(C(=O)O)CC[C@]3(C)[C@H](CC[C@@H]4[C@@]5(C)Cc6c([nH]c7ccccc67)C(C)(C)[C@@H]5CC[C@]43C)[C@@H]12
Return: 94.7

Enquiry: Fill in: growth of CS(=O)(=O)O[C@@H]1C(=O)N(c2cc3c4ccccc4ccc3c3ccccc23)[C@H]1c1ccc(F)cn1 is ___
Return: -0.245

Enquiry: Can you share its growth? I mean this molecule: C=C(C)[C@@H]1CC[C@]2(C(=O)N=C=S)CC[C@]3(C)[C@H](CC[C@@H]4[C@@]5(C)CCC(=O)C(C)(C)[C@@H]5CC[C@]43C)[C@@H]12
Return: 43.6

Enquiry: # input molecule: CCOC(=O)c1c(C)nc2c(c1N)/C(=C/c1cccs1)C(=O)N2c1ccc(OC)cc1 ; wanted: its growth
Return: 30.6

Enquiry: What does the record list as growth for COc1ccc2c(c1)C1(C(=O)N2)C(C#N)=C(c2ccccc2)Nc2c1c(-c1ccccc1)nn2-c1ccccc1 (stereo unspecified) ?
Return: 33.8

Enquiry: What value of measured growth is listed for COc1ccc([C@H]2[C@@H](F)C(=O)N2c2cc(OC)c(OC)c(OC)c2)cc1F ?
Return: 50.9

Enquiry: Which growth value belongs to COc1c(O)cc2oc3cc(O[C@@H]4OC(C)[C@@H](O)[C@H](O)C4O)c(CC=C(C)C)c(O)c3c(=O)c2c1CC=C(C)C (stereo partly specified) ?
Return: 88.9

Enquiry: // growth lookup, key: CC(=O)c1ccc(NC(=O)CSc2nnc(-c3cc(-c4ccc(C)cc4)nc4ccccc34)o2)cc1
Return: 62.1

Enquiry: What does the data say about its growth? Entry: O=C(Nc1cc(Br)ccn1)c1cc2cc(Nc3nc(-c4ccccc4)nc4ccccc34)ccc2oc1=O
Return: 92.3

Enquiry: I'd like to know its growth. The molecule in question is C=C1C(=O)O[C@H]2[C@H]1CCC(/C=N/c1ncc(Br)cc1N)=C\CC[C@@]1(C)O[C@@H]21
Return: 85.3

Enquiry: Param item = CCOC(=O)C1CCN(S(=O)(=O)/N=C2/NC(=O)NC2=C(Cl)Cl)CC1 ; retrieve measured growth.
Return: 55.5

Enquiry: Consider the molecule N#Cc1c(-c2ccc(Cl)cc2)cc(-c2cc3ccccc3o2)nc1SCC(=O)c1ccc(Cl)cc1 and give its measured growth.
Return: 76.7

Enquiry: Item under review: CCOC(=O)c1c(C(F)(F)F)n([O-])c2ccc(Cl)cc2[n+]1=O . Reported growth?
Return: -52.2

Enquiry: Which growth value is on record for C#CCN(CCCOc1ccc(Cl)cc1Cl)CCCSC(=O)CCCCCN1/C(=C\C=C2/CCCC(/C=C/C3=[N+](CCCCCC(=O)[O-])c4ccccc4C3(C)C)=C2Cl)C(C)(C)c2ccccc21 ?
Return: 42.4

Enquiry: Quick check: growth of CC(=O)Nc1nc2c(c(N)c1C#N)C(c1cccc(Cl)c1)C1=C(CCCC1=O)N2c1sc2c(c1C#N)CCCC2 (stereo unspecified) ?
Return: 81

---

Please provide measured growth for the entries that follow.
- System: HOP-62 NSCLC
- PROTOCOL_NOTES: NCI-60 one-dose screen, 48 h (100 = growth as untreated, 0 = no growth, -100 = all killed)
- RUN_CONDITIONS: 10 µM unless noted
- Method: Growth inhibition of the HOP-62 human Non-Small Cell Lung tumor cell line is measured as a screen for anti-cancer activity. Cells are grown in 96 well plates and exposed to the test compound for 48 hours. Compounds are tested at a single concentration, which is 10^-5 M for most compounds. The reported endpoint is percent growth (GI% or GIPRCNT), where numbers from 0 - 100% represent growth inhibition, and numbers from -100% - 0 represent cell death. […]
The panel holds about 83,000 compounds, 20% with a hit somewhere; the sample as a whole holds those more often.
Report the value in % with no unit label.

Enquiry: Find the recorded growth belonging to CSc1nc(-c2ccc(F)cc2)c(C#N)c(N2CCOCC2)n1 and report it.
Return: 97.3

Enquiry: Given the entry COc1cc(-c2cn(-c3ccc(Cl)c(Cl)c3)c(=O)[nH]2)cc(OC)c1OC , report its measured growth.
Return: -1.73

Enquiry: Form field: reported growth of CC(=O)O[C@@H]1C[C@]2(C)[C@H]3[C@H](O)C[C@@H]4C5=CC(C)(C)CC[C@]5(C)CC[C@@]4(C)[C@]3(C)CC[C@H]2C(C)(C)[C@H]1O
Return: 101

Enquiry: What value of growth has been recorded for this entry: CC(C)NS(=O)(=O)c1cccc(-c2ccc3c4c(n(CCCN(C)C)c(=O)c3c2)-c2ccccc2C4=O)c1
Return: 101

---

- Tested on: NCI-H522 lung
- PROTOCOL_NOTES: NCI-60 one-dose screen, 48 h (100 = growth as untreated, 0 = no growth, -100 = all killed)
- RUN_CONDITIONS: 10 µM unless noted
- Experimental: Growth inhibition of the NCI-H522 human Non-Small Cell Lung tumor cell line is measured as a screen for anti-cancer activity. Cells are grown in 96 well plates and exposed to the test compound for 48 hours. Compounds are tested at a single concentration, which is 10^-5 M for most compounds. The reported endpoint is percent growth (GI% or GIPRCNT), where numbers from 0 - 100% represent growth inhibition, and numbers from -100% - 0 represent cell death. […]
This is part of a sample that, as a whole, favours compounds with a hit. Of some 83,000 tested, about 20% had one in any assay.
RECORDED_METRIC: growth (%)
Give the number; % is assumed, so skip it.

Enquiry: Any idea what its growth is? The compound is COc1ccc(NC(=O)c2ccc(Nc3ncnc4[nH]c(C)c(C)c34)cc2)cc1
Return: 97.4

Enquiry: Query (compound): Oc1ccc(CNNc2ccnc3c(O)cccc23)c2cccnc12 ; field requested: growth
Return: 13

Enquiry: Reported growth, compound COC1=CC=CC2(OC)C3(O)CCCc4cccc(c43)N3C(=O)COC132 (stereo not given) : ____
Return: 78.8

Enquiry: Which growth is reported for this compound? O=S(=O)(Nc1nccs1)c1ccc(Nc2nc(-c3ccncc3)cs2)cc1
Return: 97.6

Enquiry: Fill in the blank: the reported growth of O=C(CCCC(=O)Nc1ccc(-n2nnc3cc(Cl)c(Cl)cc32)cc1)Nc1ccc(-n2nnc3cc(Cl)c(Cl)cc32)cc1 is ____.
Return: 37.4

Enquiry: Field request: growth | item: COc1ccc(C2=NN(c3ccc(S(N)(=O)=O)cc3)C(c3ccc(Cl)cc3)C2)c(O)c1 (stereo not given)
Return: 48.8

Enquiry: Any idea what its growth is? The compound is CCOC(=O)C1=C(C)n2nc(CC#N)c(C#N)c2NC1c1ccc(CC)cc1 (stereo not given)
Return: 85.5

Enquiry: For the compound shown here, COc1cc(-c2cn(-c3ccc(Cl)c(Cl)c3)c(=O)[nH]2)cc(OC)c1OC , give the reported growth.
Return: 74.5

Enquiry: Which growth is listed for COc1ccc2[nH]c(=O)c(/C=C/C(=O)c3ccccc3OC)cc2c1 ?
Return: 3.93

Enquiry: Quick one: growth for N#CC1(C#N)C2=C(CCCC2)NC(c2c(F)cccc2Cl)C1(C#N)C#N (stereo not given) ?
Return: -14.1
